# study.target: kappa opiate receptor (Cavia porcellus, UniProt P41144)
# Construct: guinea pig cortices and cerebella were homogenized in 40 mL of Buffer A; from tissue; host or cells: guinea pig cortices and cerebella, crude membrane suspension
# Sequence (P41144 whole entry): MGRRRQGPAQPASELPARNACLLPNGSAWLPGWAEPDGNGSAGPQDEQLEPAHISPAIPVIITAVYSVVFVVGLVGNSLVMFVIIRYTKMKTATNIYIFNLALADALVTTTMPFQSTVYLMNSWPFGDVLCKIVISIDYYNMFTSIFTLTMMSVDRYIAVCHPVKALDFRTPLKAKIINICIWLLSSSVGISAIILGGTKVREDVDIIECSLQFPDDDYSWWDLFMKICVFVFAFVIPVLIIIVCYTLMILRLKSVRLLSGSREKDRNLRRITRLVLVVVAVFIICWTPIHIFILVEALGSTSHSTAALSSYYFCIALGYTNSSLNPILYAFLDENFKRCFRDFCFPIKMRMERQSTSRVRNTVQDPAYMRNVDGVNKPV
# assay.overview: Inhibition of tritiated U69,593 binding to the kappa opiate receptor in guinea pig brain homogenates
# stated.conditions: [3H]U69,593 bound; 3 nm tritiated U69,593, guinea pig brain membranes
Listed here: items and their measured % Bound.
recorded.endpoint: % Bound (%)

>>> df
                                    compound  measurement
 0  Cc1nc(CO)c2n1C(C(C)C)C(=O)N2 (stereo not shown)       78.827
 1  CC(C)c1nc(Cc2cc(C(F)(F)F)cc(C(F)(F)F)c2)n2c1NC(=O)C2C(C)C (racemic)       70.589
 2  CC(C)c1nc(CC2CCCCC2)n2c1NC(=O)C2C(C)C (stereo not shown)       70.685
 3  CCC(C)Cc1nc(C(C)C)c2n1C(C(C)C)C(=O)N2 (stereo not shown)       73.311
 4  Cc1nc(C(C)C)c2n1C(Cc1ccccc1)C(=O)N2 (stereo not shown)       74.884
 5  Cc1ccc(Cc2nc(C(C)C)c3n2C(C(C)C)C(=O)N3)cc1 (racemic)       48.287
 6  CCC(C)c1nc(C(C)C)c2n1C(C(C)C)C(=O)N2 (mixture of isomers)       62.630
 7  CC(C)c1nc(Cc2ccc(Br)cc2)n2c1NC(=O)C2C(C)C (racemic)       73.658
 8  Cc1nc(CCCCN)c2n1C(C(C)C)C(=O)N2 (stereo not shown)       51.853
 9  Cc1nc(Cc2ccccc2)c2n1C(C(C)C)C(=O)N2 (stereo not shown) [Pool 47]      104.469
10  CCC(C)C1C(=O)Nc2c(C(C)C)nc(C)n21 (stereo not shown) [Pool 21]       56.921
11  COc1cccc(Cc2nc(C(C)C)c3n2C(C(C)C)C(=O)N3)c1 (racemic)       91.902
12  Cc1nc(CC(C)C)c2n1C(C(C)C)C(=O)N2 (stereo not shown) [Pool 53]      106.356

----------
# study.target: mu opiate receptor (Rattus norvegicus)
# Construct: from tissue; host or cells: rat brain membranes/homogenate
# Sequence (P33535 whole entry): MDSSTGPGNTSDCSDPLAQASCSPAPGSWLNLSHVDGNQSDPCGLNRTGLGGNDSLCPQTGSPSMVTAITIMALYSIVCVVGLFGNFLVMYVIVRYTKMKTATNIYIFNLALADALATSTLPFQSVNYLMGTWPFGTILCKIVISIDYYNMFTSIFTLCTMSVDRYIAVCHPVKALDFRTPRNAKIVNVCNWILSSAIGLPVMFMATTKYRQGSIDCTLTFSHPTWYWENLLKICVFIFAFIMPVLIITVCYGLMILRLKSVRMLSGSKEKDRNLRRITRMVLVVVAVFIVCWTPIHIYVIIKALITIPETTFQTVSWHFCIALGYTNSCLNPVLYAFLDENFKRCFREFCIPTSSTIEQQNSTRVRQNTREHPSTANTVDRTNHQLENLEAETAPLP
# assay.overview: Inhibition of [3H]DAMGO binding to the mu opiate receptor in rat brain homogenates
# stated.conditions: percent inhibition of DAMGO binding; 0.08 mg of compound per milliliter, 7 nM 3H-labeled DAMGO, rat brain membranes
Listed here: items and their measured % Inhibition.
recorded.endpoint: % Inhibition (%)

                                    molecule  measurement
 0  Cc1cccc(Cc2nc(C(C)C)c3n2C(C(C)C)C(=O)N3)c1 (racemic)           32
 1  CCCCC1C(=O)Nc2c(C(C)C)nc(C)n21 (stereo not drawn) [Pool 27]           41
 2  Cc1nc(CCCNC(=N)N)c2n1C(C(C)C)C(=O)N2 (stereo not drawn)           71
 3  CC(C)c1nc(Cc2ccc(-c3ccccc3)cc2)n2c1NC(=O)C2C(C)C (racemic)           43
 4  CC(C)c1nc(CCCc2ccccc2)n2c1NC(=O)C2C(C)C (racemic)           57
 5  Cc1nc(CC2CCCCC2)c2n1C(C(C)C)C(=O)N2 (stereo not drawn) [Pool 46]           40
 6  COc1cccc(Cc2nc(C(C)C)c3n2C(C(C)C)C(=O)N3)c1 (racemic)           43
 7  CC(C)c1nc(CC23CC4CC(CC(C4)C2)C3)n2c1NC(=O)C2C(C)C (stereo not drawn)           35
 8  CCCCCCc1nc(C(C)C)c2n1C(C(C)C)C(=O)N2 (racemic)           47
 9  Cc1nc(C(C)C)c2n1C(CC(C)C)C(=O)N2 (stereo not drawn) [Pool 20]           50
10  Cc1nc(Cc2ccc(O)cc2)c2n1C(C(C)C)C(=O)N2 (racemic) [Pool 64]           58
11  CCC(C)c1nc(C(C)C)c2n1C(C(C)C)C(=O)N2 (mixture of isomers)           38
